# Tested on: intracellular amastigotes of T. cruzi (Tulahuen strain transfected with the β-galactosidase gene)
# measurementDescription: Anti-trypanosomal activity, β-galactosidase readout in infected U937 macrophages, 72 h
# Assay type: cell-based, Trypanosoma cruzi
# experimentalContext: Trypanosoma cruzi, TULAHUEN, U-937, 72 h, read-out: Trypanocidal Activity (EC50), intracellular amastigotes of T. cruzi Tulahuen in U937 macrophages, 72 h; average ± SD (SEM)
Answer each item with its documented pEC50.
One number for each entry, as −log10 of the molar value.

Could you tell me pEC50 for each of these compounds? They are listed below.
1. CC(C)=CCc1ccc2occc(=O)c2c1O
2. CC(=O)c1ccc(O)c(CC=C(C)C)c1O
3. COCOc1cc(O)c(C(=O)C=Cc2ccc(OC)cc2)cc1CC=C(C)C

Given back:
1: 4.76; 2: 4.68; 3: 4.45
